test system: EW-18; assay: cells; format: functional, cell-based; conditions: Homo sapiens;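 also: growth inhibition of EW-18 cells, read out by a cell viability assay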
Description: SANGER: Inhibition of human EW-18 cell growth in a cell viability assay.
QUANTITY_MEASURED: IC50

# MOLECULE, SYSTEM, QUANTITY_MEASURED, RECORDED_RESULT
measured = [
    ("CC(C)=CC[C@@H](O)C1=CC(=O)c2c(O)ccc(O)c2C1=O [SHIKONIN]", "EW-18", "IC50", "0.529 µM"),
]

Consider the additional molecule presented here.
For the molecule CCn1c(-c2nonc2N)nc2cnc(Oc3cccc(NC(=O)c4ccc(OCCN5CCOCC5)cc4)c3)cc21 [GSK-269962A] , what IC50 is on record? > 2.5 µM

---

tested on: BPH-1; experiment: cells; assay type: functional, cell-based; conditions: Homo sapiens;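 also: cell viability assay measuring growth inhibition of human BPH-1 cells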
Description: SANGER: Inhibition of human BPH-1 cell growth in a cell viability assay.
QUANTITY_MEASURED: pIC50
Please report pIC50 as the negative decimal logarithm of the molar concentration, giving only the number.

Here's what some known entries look like.
# SMILES_STRUCTURE, RECORDED_RESULT
records = [
    ("CCNC(=O)c1noc(-c2cc(C(C)C)c(O)cc2O)c1-c1ccc(CN2CCOCC2)cc1", 7.99),
    ("C[C@]12O[C@H](C[C@]1(O)CO)n1c3ccccc3c3c4c(c5c6ccccc6n2c5c31)CNC4=O", 5.88),
]

What measured pIC50 goes with "Cn1c(=O)n(-c2ccc(C(C)(C)C#N)cc2)c2c3cc(-c4cnc5ccccc5c4)ccc3ncc21" ? 8.32

---

test system: EW-16; test: cells; assay type: functional, cell-based; details: Homo sapiens;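 also: growth inhibition of human EW-16 cells, read out as cell viability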
Description: SANGER: Inhibition of human EW-16 cell growth in a cell viability assay.
Measured IC50 of individual entries
Provide only the numeric value, understood in nM.

# MOLECULE, IC50 (nM)
data = [
    ("CCNC(=O)c1noc(-c2cc(C(C)C)c(O)cc2O)c1-c1ccc(CN2CCOCC2)cc1 [LUMINESPIB]", 7.49),
]

Could you now consider this next molecule?
If you can, please state the reported IC50 value of CC[C@]1(O)C[C@@H]2CN(CCc3c([nH]c4ccccc34)[C@@](C(=O)OC)(c3cc4c(cc3OC)N(C)[C@H]3[C@@](O)(C(=O)OC)[C@H](OC(C)=O)[C@]5(CC)C=CCN6CC[C@]43[C@@H]65)C2)C1 [VINBLASTINE] . 7.83

---

test system: DOHH-2; experiment: cells; assay type: functional, cell-based; conditions: Homo sapiens;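 also: growth inhibition of human DOHH-2 cells, read out with a cell viability assay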
Description: SANGER: Inhibition of human DOHH-2 cell growth in a cell viability assay.
# IC50 values compiled below

Worked set:
# COMPOUND, QUANTITY_MEASURED, RECORDED_RESULT
records = [
    ("O=c1cc(N2CCOCC2)oc2c(-c3cccc4c3sc3ccccc34)cccc12", "IC50", "> 2000 nM"),
    ("CC[C@]1(O)C[C@@H]2CN(CCc3c([nH]c4ccccc34)[C@@](C(=O)OC)(c3cc4c(cc3OC)N(C)[C@H]3[C@@](O)(C(=O)OC)[C@H](OC(C)=O)[C@]5(CC)C=CCN6CC[C@]43[C@@H]65)C2)C1", "IC50", "1.81 nM"),
    ("CC(O)(CS(=O)(=O)c1ccc(F)cc1)C(=O)Nc1ccc(C#N)c(C(F)(F)F)c1 (stereo unspecified) [BICALUTAMIDE]", "IC50", "> 1020 nM"),
    ("Cc1[nH]c(/C=C2\\C(=O)Nc3ccc(S(=O)(=O)Cc4c(Cl)cccc4Cl)cc32)c(C)c1C(=O)N1CCC[C@@H]1CN1CCCC1", "IC50", "> 2000 nM"),
]

Short answer please: IC50, DOHH-2, entry "Cc1ccc(NC(=O)c2cccc(C(C)(C)C#N)c2)cc1Nc1ccc2ncn(C)c(=O)c2c1" 1990 nM

Observed IC50 on DOHH-2 for "N#C/C(=C1/Nc2ccccc2S1)c1ccnc(NCCc2cccnc2)n1" , please. > 8000 nM
